Documented ED50 across a set of compounds
System: Mus musculus
experiment: Neuroleptic activity in po dosed STD-ddY mouse assessed as inhibition of spontaneous motor activity by measuring number of revolution of cage for 5 mins
Type: functional
metric-name: ED50

{"test-smiles": "O=C(CCCSc1nc2ccccc2n1C1CCN(CCCC(=O)c2ccc(F)cc2)CC1)c1ccc(F)cc1", "metric-name": "ED50", "test-value": "14 mg/kg"}
{"test-smiles": "CSc1nc2ccccc2n1C1CCN(CCCC(=O)c2ccc(F)cc2)CC1", "metric-name": "ED50", "test-value": "6.2 mg/kg"}
{"test-smiles": "Br.CCOC(=O)CSc1nc2ccccc2n1C1CCN(CCCC(=O)c2ccc(F)cc2)CC1", "metric-name": "ED50", "test-value": "> 40 mg/kg"}
{"test-smiles": "Cc1nc2ccccc2n(C2CCN(CCCC(=O)c3ccc(F)cc3)CC2)c1=O", "metric-name": "ED50", "test-value": "14.1 mg/kg"}
{"test-smiles": "Cc1nc2ccccc2n1C1CCN(CCCC(=O)c2ccc(F)cc2)CC1", "metric-name": "ED50", "test-value": "0.85 mg/kg"}

----------
Test system: Mus musculus
experiment: Neuroleptic activity in po dosed STD-ddY mouse assessed as inhibition of spontaneous motor activity by measuring number of revolution of cage for 5 mins
Format: functional
metric-name: log10(ED50) (log10 of the value in mg/kg)

{"compound": "Cl.O=C(CCCN1CCC(n2c(SC(=O)c3ccc(Cl)cc3)nc3ccccc32)CC1)c1ccc(F)cc1", "tested-on": "Mus musculus", "log10(ED50)": -0.02}
{"compound": "Cl.O=C(CCCN1CCC(n2c(-c3ccccc3)nc3ccccc32)CC1)c1ccc(F)cc1", "tested-on": "Mus musculus", "log10(ED50)": 1.26}
{"compound": "Fc1ccc(C(CCCN2CCC(n3c(=S)[nH]c4ccccc43)CC2)c2ccc(F)cc2)cc1", "tested-on": "Mus musculus", "log10(ED50)": 1.30}
{"compound": "O=C(CCCN1CCC(n2c(SCC(=O)c3ccc(Cl)cc3)nc3ccccc32)CC1)c1ccc(F)cc1", "tested-on": "Mus musculus", "log10(ED50)": 0.70}
{"compound": "CCSc1nc2ccccc2n1C1CCN(CCCC(=O)c2ccc(F)cc2)CC1.Cl", "tested-on": "Mus musculus", "log10(ED50)": 0.70}
{"compound": "O=C(CCCN1CCC(n2c(Sc3ccccc3[N+](=O)[O-])nc3ccccc32)CC1)c1ccc(F)cc1", "tested-on": "Mus musculus", "log10(ED50)": 1.04}
{"compound": "CCCCc1nc2ccccc2n1C1CCN(CCCC(=O)c2ccc(F)cc2)CC1.Cl", "tested-on": "Mus musculus", "log10(ED50)": 1.15}
{"compound": "O=c1[nH]c2ccccc2n1C1CCN(CCCC(c2ccc(F)cc2)c2ccc(F)cc2)CC1 [PIMOZIDE]", "tested-on": "Mus musculus", "log10(ED50)": 0.87}
